Test system: barley, spring (spring barley, Hordeum vulgare)
Assay: Test D controlled growth environment herbicide test, pre- and postemergence
Assay type: in vivo
Conditions: Preemergence, 250 g ai/ha; scale 0 to 100 (0 no effect, 100 complete control)
Measurement Label: Plant response rating, Barley, Spring
Simply state the number, no unit and no words.

Some molecules with known Plant response rating, Barley, Spring results, for comparison:
{"columns": ["Record Smiles", "Test System", "Plant response rating, Barley, Spring"],
 "data": [
  ["CCOC(=O)Oc1c(C)nn(C)c(=O)c1-c1c(C)ccc2ccccc12", "barley, spring (spring barley, Hordeum vulgare)", 60],
  ["Cc1cc(C)c2sc(C)c(-c3c(OC(=O)OCCCl)c(C)nn(C)c3=O)c2c1", "barley, spring (spring barley, Hordeum vulgare)", 5],
  ["CCC(=O)Oc1c(C)nn(C)c(=O)c1-c1c(C)sc2ccc(Cl)cc12", "barley, spring (spring barley, Hordeum vulgare)", 5]
]}

Query block: Look up Plant response rating, Barley, Spring: CC(=O)Oc1c(C)nn(C)c(=O)c1-c1c(C)cc(C)c2ccccc12
Result block: 40

Query block: Look up Plant response rating, Barley, Spring: Cc1ccc2ccccc2c1-c1c(O)c(C)nn(C)c1=O
Result block: 60

Query block: Look up Plant response rating, Barley, Spring: Cc1ccc2ccc(C)c(-c3c(O)c(C)nn(C)c3=O)c2c1
Result block: 60

====

Each item that follows carries a reported Galium plant response rating.
System: galium (catchweed bedstraw, Galium aparine)
Experiment: Test A greenhouse herbicide test, postemergence
Assay type: in vivo
Conditions: 500 g ai/ha, 0 to 100 scale, 0 is no effect, 100 is complete control
Simply state the number, no unit and no words.

{"columns": ["Compound", "Measurement Label", "Data Value"],
 "data": [
  ["CCC(=O)Oc1c(C)nn(C)c(=O)c1-c1c(C)sc2c(C)cc(C)cc12 [Compound 28]", "Galium plant response rating", 100]
]}

Query block: Look up Galium plant response rating: Cc1nn(C)c(=O)c(-c2c(C)sc3ccccc23)c1O [Compound 65]
Result block: 100

Query block: Look up Galium plant response rating: CC(=O)Oc1c(C)nn(C)c(=O)c1-c1c(C)sc2c(C)cc(C)cc12 [Compound 27]
Result block: 100

Query block: Look up Galium plant response rating: COc1ccc2ccccc2c1-c1c(O)c(C)nn(C)c1=O [Compound 40]
Result block: 100

Query block: Look up Galium plant response rating: CCOC(=O)Oc1c(C)nn(C)c(=O)c1-c1c(CC)ccc2ccccc12 [Compound 37]
Result block: 100

Query block: Look up Galium plant response rating: Cc1cc(C)c2c(-c3c(OC(=O)C(C)(C)C)c(C)nn(C)c3=O)c(C)sc2c1 [Compound 45]
Result block: 0

====

Test system: pigweed (Amaranthus retroflexus)
Assay: Test C greenhouse herbicide test, pre- and postemergence
Assay type: in vivo
Conditions: Preemergence, 62 g ai/ha; scale 0 to 100, 0 is no effect, 100 is complete control
Measurement Label: Plant response rating, Pigweed
Simply state the number, no unit and no words.

Some molecules with known Plant response rating, Pigweed results, for comparison:
{"columns": ["Record Smiles", "Plant response rating, Pigweed"],
 "data": [
  ["CCOC(=O)Oc1c(C)nn(C)c(=O)c1-c1c(C)sc2c(C)cc(C)cc12", 100],
  ["Cc1ccc2sc(C)c(-c3c(O)c(C)nn(C)c3=O)c2c1", 100],
  ["COc1nn(C)c(=O)c(-c2c(C)ccc3ccccc23)c1O", 100]
]}

# evaluate next
Query block: Look up Plant response rating, Pigweed: CCOC(=O)Oc1c(C)nn(C)c(=O)c1-c1c(CC)ccc2ccccc12
Result block: 98
